- Assay system: T1, cynomolgus CD38 ECD (cynomolgus, UniProt Q5VAN0 44-301, biotinylated on the AviTag during preparation)
- T1 construct: also called Cyno-CD38; Avi-Cyno CD38 ECD
- Assay notes: SPR (Biacore 8K), antibody captured, antigen injected;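 also: antibodies held on a CM5 chip through anti-human IgG Fc, antigen in 3-fold serial dilutions, 1 min association then 10 min dissociation at 25 °C, 1:1 Langmuir global fit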
Quantity measured: koff

Binder	Measured value
25F12 (antibody, human IgG1, kappa, V domains shown, Rabbit-human chimeric anti-CD38: rabbit VH and VL on human IgG1 and kappa constant regions) VH: RSLEESGGRLVTPGTPLTLTCTTSGFSLSSYDMSWVRQAPGKGLEWIGYITYGGNIYYATWAKGRFTTSKTSTTVDLKITSPTTEDTATYFCARTLYTGGRYYFSLWGPGTLVTVSS VL: AQVLTQTPSSVSAVVGGTVTINCQSSQSIANSNEVAWYQQKLGQPPKLLIYDASTLASGVPSRFSGSGSGTQFTLIISGVQSDDAATYYCQGTVYDNVWYAAFGGGTEVVVKR	0.000185 s⁻¹
17F7 (antibody, human IgG1, kappa, V domains shown, Rabbit-human chimeric anti-CD38: rabbit VH and VL on human IgG1 and kappa constant regions) VH: QSVEESGGRLVTPGTPLTLTCTASGFSLSSYYMSWVRQAPGKGLEWIGFISKTAITYYASWARGRFTISKTSTAVDLKITSPTTEDTATYFCARVDAYSAGDLWGPGTLVTVSS VL: AQVLTQTPSSVSAAVGGTVTINCQASQSVYSDNRLSWFQQKSGQPPKLLIYSTSSLASGVPSRFSGSGSGTQFTLTISGVQSDDAASYYCQGEFICTSADCFVFGGGTEVVVKR	0.00382 s⁻¹
27F6 (antibody, human IgG1, kappa, V domains shown, Rabbit-human chimeric anti-CD38: rabbit VH and VL on human IgG1 and kappa constant regions) VH: QSLEESGGGLVKPGASLTLTCKASGFSFSSGCDMCWVRQAPGKGLEWISCIYTGSGSTYYANWAKGRFTISRTSSTTVTLQMTSLTAADTATYFCAGDSDYLGLWGPGTLVTVSS VL: DIVMTQTPSSVEAAVGGTVTIKCQASQNIGNYLAWYQQKPGQPPKVLIYRASTLASGVPSRFKGSGSGTHFTLTISDLESADAATYYCQSYYYTTDDNYRSWAFGGGTEVVVKR	0.00029 s⁻¹
